Tested on: esterase
assay_overview: Half-life time was determined for esterase-catalyzed hydrolysis of the phenol ester bond in porcine liver esterase
Assay type: ADME, Sus scrofa
details: pig
result_type: half-life

Q: Return value of half-life for input "CC(C)C[C@H]1NC(=O)Oc2ccccc2/C=C\C(=O)NC(=O)[C@H](Cc2ccc(O)cc2)NC(=O)[C@@H](C)NC(=O)CNC(=O)[C@H](Cc2ccccc2)NC1=O" , no commentary.
Result: 12.7 h

Hey, just so you know, these numbers are from ChEMBL document CHEMBL1128937.
